Task for the reader: assign each of the following compounds its reported log10(TGI).
- Tested on: MALME-3M melanoma
- test_method_notes: NCI tumour cell line growth inhibition, 48 h
Field: value | Transform: log10 | Quantity: TGI | Unit: µM

{"compound": "COc1ccc(/C=C2\\CCC(CN(C)C)C2=O)cc1OC (stereo not given)", "value": 1.07}
{"compound": "C=C1CCC2C3(C)COC(c4ccccc4Br)OC3CCC2(C)C1C/C=C1/C(=O)OCC1OC(C)=O (stereo not given)", "value": 0.61}
{"compound": "Cn1ccnc1C(=O)/C=C/c1ccc(CC(=O)Nc2ccc(C(F)(F)F)cc2)cc1", "value": 1.03}
{"compound": "CC(=O)N1N(c2ccc([N+](=O)[O-])cc2)C(=O)C1(C)C", "value": 1.75}

[ask] Given the entry `Nc1n[nH]c2cccc(C#Cc3cccc(C(=O)Nc4cc(CN5CCOCC5)cc(C(F)(F)F)c4)c3)c12` , report its measured log10(TGI).
[reply] 0.99

* * *

- System: HCC-2998 colon
- test_method_notes: NCI tumour cell line growth inhibition, 48 h
measurement_type: TGI

Field: example entries. Status: answers known.
{"compound": "COc1ccc(C2(O)c3ccccc3C(=O)N(C)C2(O)c2ccc(OC)cc2)cc1 (configuration not stated)", "subject_of_test": "HCC-2998 colon", "value": "> 100 µM"}
{"compound": "CC(C)N1C(NNC(=O)c2cnccn2)=NS(=O)(=O)c2ccccc21", "subject_of_test": "HCC-2998 colon", "value": "> 100 µM"}
{"compound": "CCOC(=O)c1nc(-c2ccccc2)oc1OCC", "subject_of_test": "HCC-2998 colon", "value": "> 100 µM"}
{"compound": "COc1ccc2c(c1)C(C)Cc1c(Cl)nc(C)nc1N2C (configuration not stated)", "subject_of_test": "HCC-2998 colon", "value": "8.93 µM"}
{"compound": "C1CCOC2(CCC3(CC2)OCCCCO3)OC1", "subject_of_test": "HCC-2998 colon", "value": "> 100 µM"}
{"compound": "N#Cc1[nH]c(=O)n(-c2cccc3ccccc23)c1N", "subject_of_test": "HCC-2998 colon", "value": "> 10 µM"}

Could you report TGI for every entry in the following list?
1. CCN1C(=O)N(CC)C2C1NN=c1s/c(=C\c3cc4ccccc4[nH]3)c(=O)n12 (configuration not stated)
2. COc1cc(Oc2nc3c(N)cc(C(F)(F)F)cc3nc2-c2ccccc2)cc(OC)c1OC
3. CC(C)CCc1n[nH]c(=O)n1/N=C\c1ccccc1
4. CCOP(=O)(CN=C(c1ccccc1)c1ccccc1)OCC
5. COC(=O)[C@@]12C(=O)C(C)C(=O)[C@]1(C)C(C)=C[C@H]1[C@]3(C=O)CC[C@H](OC(C)=O)C(C)(C)[C@H]3CC[C@@]12C (some centres not stated)

[reply]
1. > 100 µM
2. > 55.1 µM
3. > 100 µM
4. > 100 µM
5. > 100 µM

* * *

Task for the reader: assign each of the following compounds its reported TGI.
- Test system: MCF7 breast
- test_method_notes: NCI tumour cell line growth inhibition, 48 h
Numbers only, in µM.

Field: example entries. Status: answers known.
{"compound": "O=C1Nc2ccccc2/C1=C/c1c(Cl)[nH]c2ccc(O)cc12", "subject_of_test": "MCF7 breast", "TGI / µM": 14.8}
{"compound": "CN(C)CCn1c(=O)c2ccc3c4c(nn3CCN(C)C)c3cc(O)ccc3n(c1=O)c24", "subject_of_test": "MCF7 breast", "TGI / µM": 0.392}
{"compound": "COc1ccc(/C=C2\\CCC(CN(C)C)C2=O)cc1OC (stereo not drawn)", "subject_of_test": "MCF7 breast", "TGI / µM": 8.51}
{"compound": "O=C(OCCBr)c1ccc(Cl)c([N+](=O)[O-])c1", "subject_of_test": "MCF7 breast", "TGI / µM": 7.5}
{"compound": "CC(=O)N1N(c2ccc([N+](=O)[O-])cc2)C(=O)C1(C)C", "subject_of_test": "MCF7 breast", "TGI / µM": 42.5}

Could you report TGI for every entry in the following list?
1. O=C(COc1cccc(/C=C2\COc3ccc(Cl)cc3C2=O)c1)c1ccc(Cl)cc1
2. O=C1/C(=C/c2c(Cl)[nH]c3ccccc23)c2ccccc2N1c1ccccc1
3. Cc1c(Cl)cccc1NC1=C(Cl)C(=O)N(Cc2ccccc2)C1=O

[reply]
4.76
30.9
59
